Assay Protocol: NCI Yeast Anticancer Drug Screen. Data for the bub3 strain (AID 167)
Condition Details: S. cerevisiae bub3 mutant strain, at 50.0 µM, hits give high values
The panel holds about 79,000 compounds, 15% with a hit somewhere; the sample as a whole holds those more often.
Mark not satisfied for growth inhibition values under 50%, and satisfied for everything at or above.

>  <Molecule>
N#CSCc1c(Cl)cccc1Cl

>  <Answer Label>
satisfied

$$$$
>  <Molecule>
COC(=O)c1cccc2cccc(C(=O)Nc3ccc(Cl)cc3)c12

>  <Answer Label>
satisfied

$$$$
>  <Molecule>
CNc1ccc(N)cc1

>  <Answer Label>
not satisfied

$$$$
>  <Molecule>
COC(=O)c1[nH]cnc1/N=N/N(C)C

>  <Answer Label>
satisfied

$$$$
>  <Molecule>
CNC(=S)N/N=C/c1nccc(-c2ccccc2)c1C

>  <Answer Label>
not satisfied

$$$$
>  <Molecule>
CCOC(=O)C(CO)c1nc2c([nH]c1=O)c(=O)n(C)c(=O)n2C (configuration not stated)

>  <Answer Label>
satisfied

$$$$
>  <Molecule>
O=C(O)/C(=C\c1ccc(F)cc1)c1ccccc1

>  <Answer Label>
satisfied

$$$$
>  <Molecule>
CCOC(=O)C[n+]1c(C)cc(-c2ccccc2)cc1C

>  <Answer Label>
not satisfied

$$$$
>  <Molecule>
COc1ccc2c(c1)[n+]([O-])c(-c1ccccc1)c(N)[n+]2[O-]

>  <Answer Label>
satisfied

$$$$
>  <Molecule>
CN(C)c1cccc(F)c1C(=O)NC(=O)Nc1ccc(Cl)cc1

>  <Answer Label>
satisfied

$$$$
>  <Molecule>
Cc1c(NC(=O)C(=O)N=NC(=O)c2ccncc2)c(O)c2ccccc2c1O

>  <Answer Label>
satisfied

$$$$
>  <Molecule>
CCN(CC)CCOC(=O)CCN1CC2CCC(CC2)C1

>  <Answer Label>
not satisfied

$$$$

* * *

Each item that follows carries a reported growth inhibition.
Assay Protocol: NCI Yeast Anticancer Drug Screen. Data for the bub3 strain (AID 167)
Condition Details: S. cerevisiae bub3 mutant strain, at 50.0 µM (retest, dose inferred, filed as 5.0), hits give high values
About 79,000 compounds went through this panel and 15% of them were active in at least one assay; those are over-represented in the sample as a whole.

>  <Compound>
CC(C)N=C1NS(=O)(=O)c2ccccc21

>  <growth inhibition [%]>
-2

$$$$
>  <Compound>
CCCCCCCCCCCCCC(=O)OCC[N+](C)(C)C

>  <growth inhibition [%]>
99

$$$$
>  <Compound>
Nc1ccc(Cc2ccc(Cl)cc2)cc1

>  <growth inhibition [%]>
95

$$$$
>  <Compound>
CN(C)CC(CN(C)C)C(=O)c1ccc(Oc2ccccc2)cc1

>  <growth inhibition [%]>
99

$$$$
>  <Compound>
COc1ccccc1/C=C\C(=O)c1ccccc1

>  <growth inhibition [%]>
98

$$$$
>  <Compound>
S=C(NC(=S)Nc1ccc(Cl)cc1)Nc1ccc(Cl)cc1

>  <growth inhibition [%]>
2

$$$$
>  <Compound>
O=C(/C=C/C(=O)OCCCl)OCCCl

>  <growth inhibition [%]>
91

$$$$
>  <Compound>
COc1ccc(OC)c2c(C(=O)O)c(C(C)c3ccccc3)ccc12 (stereo unspecified)

>  <growth inhibition [%]>
65

$$$$
>  <Compound>
CC1OC(OC2C(OC3CCC4(C)C(CCC5(C)C4CC=C4C6CC(C)(C)CCC6(CO)C(O)CC45C)C3(C)C)OC(C(=O)O)C(OC3OC(COC4OC(CO)C(O)C(O)C4O)C(O)C(O)C3O)C2O)C(O)C(O)C1O (stereo unspecified)

>  <growth inhibition [%]>
99

$$$$
>  <Compound>
CSc1nc(SC)c2cnn(Cc3ccccc3)c2n1

>  <growth inhibition [%]>
18

$$$$
>  <Compound>
CCCCCCCC/C=C1\CCC(CN(C)C)C1=O (stereo unspecified)

>  <growth inhibition [%]>
98

$$$$

* * *

Assay Protocol: NCI Yeast Anticancer Drug Screen. Data for the rad50 strain (AID 155);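 also: 0% = growth of vehicle-only cultures of the same strain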
Condition Details: S. cerevisiae rad50 strain growth inhibition; at 5.0 µM (retest, dose inferred, filed as 0.5); hits give high values
Description: Growth inhibition of yeast strains with defined genetic alterations is measured as a screen for potential anti-cancer activity. Selected strains with alterations in DNA damage repair or cell cycle control were exposed to compounds and growth inhibition was measured relative to vehicle treated controls. The strain used in this assay is rad50
The panel holds about 79,000 compounds, 15% with a hit somewhere; the sample as a whole holds those more often.
// growth inhibition lookup, one value per entry
Reported Property: growth inhibition (%)

>  <Compound>
c1ccc(CCc2c[nH]c3ccccc23)cc1

>  <Measurement>
-7

$$$$
>  <Compound>
CCOC(=O)C(CCSC)C(=O)OCC

>  <Measurement>
-1

$$$$
>  <Compound>
O=C(O)CCCCC1CCCCC1.[Cu+2]

>  <Measurement>
31

$$$$
>  <Compound>
C[n+]1c(-c2cccc(OCCOCCOc3cccc(-c4c5cc(N)ccc5c5ccc(N)cc5[n+]4C)c3)c2)c2cc(N)ccc2c2ccc(N)cc21

>  <Measurement>
36

$$$$
>  <Compound>
O=C1CC(=S)NC(=S)N1

>  <Measurement>
-2

$$$$
>  <Compound>
c1ccc2c(c1)Nc1ccccc1[P+]21c2ccccc2Nc2ccccc21

>  <Measurement>
98

$$$$
>  <Compound>
CCCCCCCCCCCC(=O)N1CCCC1

>  <Measurement>
-1

$$$$
>  <Compound>
COC1C=COC2(C)Oc3c(C)c(O)c4c(O)c(c(C5SCCS5)c(O)c4c3C2=O)NC(=O)C(C)=C/C=C\C(C)C2OC(C)(C)OC(C2C)C(C)C(OC(C)=O)C1C (stereo not given)

>  <Measurement>
5

$$$$
>  <Compound>
COc1ccc2nc3cc([N+](=O)[O-])ccc3c(NNc3ccc([N+](=O)[O-])cc3)c2c1

>  <Measurement>
2

$$$$
>  <Compound>
CCOC(=O)C(C)(c1c(C)[nH]c2ccccc12)c1c(C)[nH]c2ccccc12

>  <Measurement>
1

$$$$

* * *

Assay Protocol: NCI Yeast Anticancer Drug Screen. Data for the mlh1 rad18 strain (AID 175)
Condition Details: S. cerevisiae mlh1 rad18 strain growth inhibition; at 50.0 µM (retest, dose inferred, filed as 5.0); hits give high values
This is part of a sample that, as a whole, favours compounds with a hit. Of some 79,000 tested, about 15% had one in any assay. Calls of active or inactive are those of the source. Rule as the data show it: active = growth inhibition above about 70%; inactive = the rest.

>  <Molecule>
C/C=c1/[nH]c(=O)/c(=C\c2ccccc2)[nH]c1=O

>  <growth inhibition>
1% (inactive)

$$$$
>  <Molecule>
CN(C)c1nc(=Nc2ccc(N=c3nc(N(C)C)ss3)cc2)ss1

>  <growth inhibition>
98% (active)

$$$$
>  <Molecule>
CCCC(=O)Oc1ccc(-c2ccccc2Br)cc1

>  <growth inhibition>
31% (inactive)

$$$$
>  <Molecule>
CC(NNC(=S)N1CC2CCC(CC2)C1)c1cc2ccccc2cn1 (centres undefined)

>  <growth inhibition>
99% (active)

$$$$
>  <Molecule>
COCC1C(=O)c2cc3c(cc2C12C=CC1(C=C2)OCCO1)OCO3 (centres undefined)

>  <growth inhibition>
-14% (inactive)

$$$$
>  <Molecule>
CC(=Nc1ccc(N(C)C)cc1)c1ccccc1

>  <growth inhibition>
78% (active)

$$$$
>  <Molecule>
C[CH2][Sn]([CH2]C)([O]C(=O)c1c(F)cccc1F)[O][Sn]([CH2]C)([CH2]C)[O]C(=O)c1c(F)cccc1F

>  <growth inhibition>
93% (active)

$$$$
>  <Molecule>
Cn1c(C(C)(C)OC(=O)Oc2ccccc2)cnc1[N+](=O)[O-]

>  <growth inhibition>
54% (inactive)

$$$$
>  <Molecule>
S=C(N/N=C/c1ccccn1)Nc1ccccn1

>  <growth inhibition>
96% (active)

$$$$
>  <Molecule>
O=C(O/N=C1/CCC/C1=C\c1ccccc1)c1ccccc1

>  <growth inhibition>
98% (active)

$$$$
>  <Molecule>
CCCCCCCCCCCCOC(=O)C[n+]1cccc(C(=O)Nc2ccc(Cl)cc2)c1

>  <growth inhibition>
99% (active)

$$$$
>  <Molecule>
Cc1ccc(C)c(NC(=O)CC2SC(=Nc3ccccc3Cl)NC2=O)c1 (centres undefined)

>  <growth inhibition>
82% (active)

$$$$
>  <Molecule>
CCCN=Cc1cnc(C#N)c(N)n1

>  <growth inhibition>
2% (inactive)

$$$$
>  <Molecule>
CCN(CC)CCN1C(=O)c2c(c3c4cccc(Cl)c4n(C4OC(CO)C(OC)C(O)C4O)c3c3[nH]c4c(Cl)cccc4c23)C1=O (centres undefined)

>  <growth inhibition>
97% (active)

$$$$
>  <Molecule>
Cc1cc(Cl)ccc1OCC(=O)Oc1c(Cl)c(Cl)c(Cl)c(Cl)c1Cl

>  <growth inhibition>
50% (inactive)

$$$$
>  <Molecule>
O=C(Oc1cccc2cccnc12)c1ccccc1

>  <growth inhibition>
98% (active)

$$$$
>  <Molecule>
NCCCSc1ccc(Br)cc1

>  <growth inhibition>
13% (inactive)

$$$$
>  <Molecule>
O=C1C2(Cl)C(Cl)=C(Cl)C1(Cl)C1(Cl)C(Cl)=C(Cl)C(=O)C21Cl (centres undefined)

>  <growth inhibition>
90% (active)

$$$$
>  <Molecule>
O=Nc1ccccc1N=O

>  <growth inhibition>
99% (active)

$$$$
>  <Molecule>
CCC(c1ccc(O)cc1)C(CC)c1ccc(O)c(O)c1 (centres undefined)

>  <growth inhibition>
97% (active)

$$$$
>  <Molecule>
CCCCCCCCCCCCCCCCN(CC)CC

>  <growth inhibition>
99% (active)

$$$$
>  <Molecule>
O=C(O)CCSSCCCCCS(=O)O

>  <growth inhibition>
9% (inactive)

$$$$
>  <Molecule>
O=C1OC(=O)C2C3CCC(C3=C3CCCCC3)C12 (centres undefined)

>  <growth inhibition>
93% (active)

$$$$
>  <Molecule>
Oc1c(Cl)cc(Br)cc1Cl

>  <growth inhibition>
97% (active)

$$$$
